Just for reference, patent US20240360228A1 is where these values come from.

# target-of-assay: T1, human CCR8 (human, UniProt P51685 1-355)
# T1 construct: Native CCR8 on human PBMC (CCR8+ CD3+ or CCR8+ CD4+ lymphocytes); also called chemokine (C-C motif) receptor 8
# T1 sequence (P51685 whole entry): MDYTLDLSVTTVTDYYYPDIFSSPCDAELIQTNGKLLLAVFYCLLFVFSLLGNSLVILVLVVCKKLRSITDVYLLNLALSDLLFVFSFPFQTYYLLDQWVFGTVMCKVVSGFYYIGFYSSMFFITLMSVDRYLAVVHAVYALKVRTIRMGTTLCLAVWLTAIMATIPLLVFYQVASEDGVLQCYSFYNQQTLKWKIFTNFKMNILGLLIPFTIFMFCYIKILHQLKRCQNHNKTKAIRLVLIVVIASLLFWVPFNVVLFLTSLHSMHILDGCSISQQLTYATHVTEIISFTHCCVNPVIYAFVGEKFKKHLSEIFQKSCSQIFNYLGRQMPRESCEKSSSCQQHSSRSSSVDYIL
# procedure-text: flow blocking, PBMC CCR8+CD3+; competitor PE-AB14
# Procedure: For blocking studies, 100 μL of the cell suspension were incubated with 10 μg purified isotype control, AB1, AB2, AB3, AB4, AB5, AB8, AB9, AB10, AB11, AB12, AB13, AB14, AB15, and Commercial ABI antibodies, or isotype control, as blocking agents. […]
value-type: MFI
Answers are plain numbers.

If you can, please state the reported MFI value of AB6 (antibody, V domains shown, Hybridoma monoclonal; Same VH/VL entries as AB5; also called antibody 6; clone 6) VH: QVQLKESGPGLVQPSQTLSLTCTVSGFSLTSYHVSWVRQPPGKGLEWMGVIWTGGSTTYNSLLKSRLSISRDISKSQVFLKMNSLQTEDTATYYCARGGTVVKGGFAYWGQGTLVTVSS VL: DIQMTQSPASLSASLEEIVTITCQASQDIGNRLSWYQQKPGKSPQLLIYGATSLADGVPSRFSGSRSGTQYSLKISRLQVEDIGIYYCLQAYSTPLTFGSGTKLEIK .
831
